- experimental.system: T1, ADAAD R595A (Bos taurus (bovine), UniProt Q9TTA5 221-940, R815A)
- T1 sequence: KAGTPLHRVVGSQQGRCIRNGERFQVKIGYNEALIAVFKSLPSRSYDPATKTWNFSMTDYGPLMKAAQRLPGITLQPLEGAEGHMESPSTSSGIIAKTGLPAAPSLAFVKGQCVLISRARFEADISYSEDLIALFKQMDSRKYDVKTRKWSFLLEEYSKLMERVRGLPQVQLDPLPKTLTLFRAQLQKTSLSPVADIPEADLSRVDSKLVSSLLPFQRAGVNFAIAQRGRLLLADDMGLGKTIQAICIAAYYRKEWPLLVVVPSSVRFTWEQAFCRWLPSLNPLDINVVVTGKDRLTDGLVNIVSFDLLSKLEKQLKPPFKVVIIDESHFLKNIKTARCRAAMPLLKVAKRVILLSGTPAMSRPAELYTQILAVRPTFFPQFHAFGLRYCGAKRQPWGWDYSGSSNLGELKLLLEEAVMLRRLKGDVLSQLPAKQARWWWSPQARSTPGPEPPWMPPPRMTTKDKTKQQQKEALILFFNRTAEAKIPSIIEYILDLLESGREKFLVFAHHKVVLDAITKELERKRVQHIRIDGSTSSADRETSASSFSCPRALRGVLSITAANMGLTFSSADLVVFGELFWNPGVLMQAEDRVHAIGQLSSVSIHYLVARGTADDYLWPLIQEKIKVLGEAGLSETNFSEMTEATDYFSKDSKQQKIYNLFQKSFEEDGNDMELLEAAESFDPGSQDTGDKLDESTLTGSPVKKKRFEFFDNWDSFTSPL
- assay.details: intrinsic tryptophan fluorescence titration; no ATP; Fluorescence titration (ex 295 nm, em 340 nm), one-site saturation fit; buffer, salt, pH and temperature not given in the material. Wild-type ADAAD Kd values are cited from ref 24 and not listed
- applied.conditions: protein: recombinant; tags: His (Ni-NTA, pET-14b); hairpin
readout: Kd (nM)
The figure you give is taken to be in nM; do not add the unit.

Asked: Request the reported Kd associated with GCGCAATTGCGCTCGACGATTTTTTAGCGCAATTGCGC (structured_DNA) [slDNA (stem-loop DNA)]
Given back: 24
